biological target: Delta-type opioid receptor (Homo sapiens); experiment: Binding affinity for Opioid receptor delta 1 by the inhibition of binding of [3H]-p-DPDPE human cloned receptors.
Sequence (P41143 whole entry): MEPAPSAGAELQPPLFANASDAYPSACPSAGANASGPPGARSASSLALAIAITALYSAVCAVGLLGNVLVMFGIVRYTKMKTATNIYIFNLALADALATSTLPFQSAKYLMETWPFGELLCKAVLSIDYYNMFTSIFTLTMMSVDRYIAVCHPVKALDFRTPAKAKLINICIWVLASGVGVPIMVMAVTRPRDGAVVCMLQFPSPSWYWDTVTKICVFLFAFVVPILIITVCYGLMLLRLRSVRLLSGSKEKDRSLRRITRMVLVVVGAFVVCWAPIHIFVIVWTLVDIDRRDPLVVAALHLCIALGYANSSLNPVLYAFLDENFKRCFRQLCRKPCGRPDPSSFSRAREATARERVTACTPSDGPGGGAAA
pIC50: −log10 of the molar value.
Entry flag: true if pIC50 reaches 8; false if it does not.

Some entries whose results are on file:
> print(dat)
                                smilesentry  class
1  C=CCN1C[C@H](C)N([C@H](c2ccc(C(=O)N3CCCC3)cc2)c2cccc(OC)c2)C[C@H]1C  false
2  C=CCN1C[C@H](C)N([C@H](c2ccc(C(=O)N(C(C)C)C(C)C)cc2)c2cccc(OC)c2)C[C@H]1C   true
3  C=CCN1C[C@H](C)N([C@H](c2ccc(C(=O)N3CCCCC3)cc2)c2cccc(OC)c2)C[C@H]1C  false

Query compound follows.
Hello, I need to know if C=CCN1C[C@H](C)N([C@H](c2ccc(C(=O)N(C)C)cc2)c2cccc(OC)c2)C[C@H]1C has measured pIC50 not below 8. Thanks!
false

====

species: Cavia porcellus; test: Binding affinity ratio of kappa opioid receptor (guinea pig brain membranes) with respect to delta opioid receptor( rat brain membranes); assay type: cell membranes; settings: Membrane
measuredMetric: Ratio

> print(dat)
                                smilesentry  recordedmeasurement
1  C=CCN1C[C@H](C)N([C@H](c2ccc(C(=O)N3CCCCCC3)cc2)c2cccc(OC)c2)C[C@H]1C               > 1220
2  C=CCN1C[C@H](C)N([C@H](c2ccc(C(=O)NC(C)(C)C)cc2)c2cccc(OC)c2)C[C@H]1C                > 8.9
3  C=CCN1C[C@H](C)N([C@@H](c2ccc(C(=O)NCC)cc2)c2cccc(OC)c2)C[C@H]1C                   48
4  C=CCN1C[C@H](C)N([C@@H](c2ccc(C(=O)N(C(C)C)C(C)C)cc2)c2cccc(OC)c2)C[C@H]1C                > 7.3
5  C=CCN1C[C@H](C)N([C@@H](c2ccc(C(=O)N(CCCC)CCCC)cc2)c2cccc(OC)c2)C[C@H]1C                > 5.5
6  C=CCN1C[C@H](C)N([C@H](c2ccc(C(=O)N(C)CC)cc2)c2cccc(OC)c2)C[C@H]1C               > 2380

Provide measured Ratio value, entry: C=CCN1C[C@H](C)N([C@@H](c2ccc(C(=O)N(C)CC)cc2)c2cccc(OC)c2)C[C@H]1C
> 41

Provide measured Ratio value, entry: C=CCN1C[C@H](C)N([C@H](c2ccc(C(=O)N(C)C)cc2)c2cccc(OC)c2)C[C@H]1C
> 2080

====

Examples of compounds with documented Ratio follow.
species: Cavia porcellus; assay: Binding affinity ratio of kappa opioid receptor (guinea pig brain membranes) with respect to delta opioid receptor( rat brain membranes); assay type: cell membranes; conditions: Membrane

> print(dat)
                                smilesentry  recordedmeasurement
1  C=CCN1C[C@H](C)N([C@@H](c2ccc(C(=O)N3CCCC3)cc2)c2cccc(OC)c2)C[C@H]1C                 > 38
2  C=CCN1C[C@H](C)N([C@@H](c2ccc(C(N)=O)cc2)c2cccc(OC)c2)C[C@H]1C                > 6.4
3  C=CCN1C[C@H](C)N([C@H](c2ccc(C(=O)N3CCCCC3)cc2)c2cccc(OC)c2)C[C@H]1C                > 684
4  C=CCN1C[C@H](C)N([C@@H](c2ccc(C(=O)N3CCCCCC3)cc2)c2cccc(OC)c2)C[C@H]1C                 > 81
5  C=CCN1C[C@H](C)N([C@H](c2ccc(C(=O)N(CCCC)CCCC)cc2)c2cccc(OC)c2)C[C@H]1C                 > 71

Provide measured Ratio value, entry: C=CCN1C[C@H](C)N([C@H](c2ccc(C(=O)NC(CC)CC)cc2)c2cccc(OC)c2)C[C@H]1C
> 14

Provide measured Ratio value, entry: C=CCN1C[C@H](C)N([C@@H](c2ccc(C(=O)N3CCCCC3)cc2)c2cccc(OC)c2)C[C@H]1C
> 22

Provide measured Ratio value, entry: C=CCN1C[C@H](C)N([C@H](c2ccc(C(=O)N(C(C)C)C(C)C)cc2)c2cccc(OC)c2)C[C@H]1C
> 352

====

target: Delta-type opioid receptor (Rattus norvegicus); test: Binding affinity for Opioid receptor delta 1 by the inhibition of binding of [3H]DADAL in rat brain membranes.; type: cell membranes
Sequence (P33533 whole entry): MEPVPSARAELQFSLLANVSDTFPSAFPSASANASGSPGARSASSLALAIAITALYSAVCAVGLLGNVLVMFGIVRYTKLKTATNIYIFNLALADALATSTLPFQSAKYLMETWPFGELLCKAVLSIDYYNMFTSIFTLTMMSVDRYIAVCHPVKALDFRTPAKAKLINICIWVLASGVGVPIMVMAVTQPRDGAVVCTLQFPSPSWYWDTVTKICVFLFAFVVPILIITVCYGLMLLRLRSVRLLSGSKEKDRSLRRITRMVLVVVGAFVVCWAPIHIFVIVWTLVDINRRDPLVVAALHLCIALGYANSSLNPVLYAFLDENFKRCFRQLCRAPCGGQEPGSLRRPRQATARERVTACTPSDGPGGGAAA
measuredMetric: log10 IC50 (log10 of the value in nM)
Reminder: these figures are log10 of reported IC50, in nM before transformation.

> print(dat)
                                smilesentry  recordedmeasurement
1  C=CCN1C[C@H](C)N([C@@H](c2ccc(C(=O)N(C)CC)cc2)c2cccc(OC)c2)C[C@H]1C                 1.78
2  C=CCN1C[C@H](C)N([C@H](c2ccc(C(=O)N(C)CC)cc2)c2cccc(OC)c2)C[C@H]1C                 0.62
3  C=CCN1C[C@H](C)N([C@@H](c2ccc(C(=O)N(C(C)C)C(C)C)cc2)c2cccc(OC)c2)C[C@H]1C                 2.54

Provide measured log10 IC50 value, entry: C=CCN1C[C@H](C)N([C@H](c2ccc(C(=O)N3CCCCC3)cc2)c2cccc(OC)c2)C[C@H]1C
1.16

Provide measured log10 IC50 value, entry: C=CCN1C[C@H](C)N([C@@H](c2ccc(C(=O)N(C)C)cc2)c2cccc(OC)c2)C[C@H]1C
2.37

====

target: Mu-type opioid receptor (Rattus norvegicus); assay: Binding affinity for Opioid receptor mu 1 by the inhibition of binding of [3H]DAMGO in rat brain membranes.
Sequence (P33535 whole entry): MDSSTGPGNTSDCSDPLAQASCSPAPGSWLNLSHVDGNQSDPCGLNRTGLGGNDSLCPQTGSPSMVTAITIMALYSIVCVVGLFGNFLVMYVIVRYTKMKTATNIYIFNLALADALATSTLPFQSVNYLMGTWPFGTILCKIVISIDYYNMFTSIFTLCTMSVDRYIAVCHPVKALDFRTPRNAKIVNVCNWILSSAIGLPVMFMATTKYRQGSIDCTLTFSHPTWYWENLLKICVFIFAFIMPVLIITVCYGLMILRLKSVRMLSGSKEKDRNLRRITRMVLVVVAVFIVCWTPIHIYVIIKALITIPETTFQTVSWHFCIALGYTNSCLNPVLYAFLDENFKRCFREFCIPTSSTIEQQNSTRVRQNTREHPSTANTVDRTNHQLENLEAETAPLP
Examples of compounds with documented IC50 follow.

Take a look at these entries with their results.
> print(dat)
                                smilesentry  measuredmetric  recordedmeasurement
1  C=CCN1C[C@H](C)N([C@H](c2ccc(C(=O)N(CCC)CCC)cc2)c2cccc(OC)c2)C[C@H]1C            IC50              3990 nM
2  C=CCN1C[C@H](C)N([C@@H](c2ccc(C(=O)N(CC)CCCC)cc2)c2cccc(OC)c2)C[C@H]1C            IC50              5880 nM
3  C=CCN1C[C@H](C)N([C@@H](c2ccc(C(N)=O)cc2)c2cccc(OC)c2)C[C@H]1C            IC50            > 2500 nM

Provide measured IC50 value, entry: C=CCN1C[C@H](C)N([C@H](c2ccc(C(=O)N(CC)CCCC)cc2)c2cccc(OC)c2)C[C@H]1C
1890 nM

Provide measured IC50 value, entry: C=CCN1C[C@H](C)N([C@H](c2ccc(C(=O)N(C)CC)cc2)c2cccc(OC)c2)C[C@H]1C
7370 nM

Provide measured IC50 value, entry: C=CCN1C[C@H](C)N([C@H](c2ccc(C(=O)N3CCCCCC3)cc2)c2cccc(OC)c2)C[C@H]1C
> 2500 nM

Provide measured IC50 value, entry: C=CCN1C[C@H](C)N([C@@H](c2ccc(C(=O)N3CCCCCC3)cc2)c2cccc(OC)c2)C[C@H]1C
> 2500 nM

Provide measured IC50 value, entry: C=CCN1C[C@H](C)N([C@@H](c2ccc(C(=O)N(C)C)cc2)c2cccc(OC)c2)C[C@H]1C
> 2500 nM

Provide measured IC50 value, entry: C=CCN1C[C@H](C)N([C@H](c2ccc(C(=O)N(CCCC)CCCC)cc2)c2cccc(OC)c2)C[C@H]1C
> 2500 nM

====

Listed here: molecules with reported pIC50 for Mu-type opioid receptor (Homo sapiens).
Please report pIC50 as the negative decimal logarithm of the molar concentration, giving only the number.

Take a look at these entries with their results.
> print(dat)
                                smilesentry  measuredmetric  recordedmeasurement
1  C=CCN1C[C@H](C)N([C@H](c2ccc(C(=O)N3CCCCC3)cc2)c2cccc(OC)c2)C[C@H]1C           pIC50                 5.22
2  C=CCN1C[C@H](C)N([C@H](c2ccc(C(=O)N(CC)CCCC)cc2)c2cccc(OC)c2)C[C@H]1C           pIC50                 5.48
3  C=CCN1C[C@H](C)N([C@H](c2ccc(C(=O)N(CCC)CCC)cc2)c2cccc(OC)c2)C[C@H]1C           pIC50                 5.22

Query molecule follows.
Please tell me the measured pIC50 for C=CCN1C[C@H](C)N([C@H](c2ccc(C(=O)N3CCCCCC3)cc2)c2cccc(OC)c2)C[C@H]1C ; system: Mu-type opioid receptor (Homo sapiens).
Sequence (P35372 whole entry): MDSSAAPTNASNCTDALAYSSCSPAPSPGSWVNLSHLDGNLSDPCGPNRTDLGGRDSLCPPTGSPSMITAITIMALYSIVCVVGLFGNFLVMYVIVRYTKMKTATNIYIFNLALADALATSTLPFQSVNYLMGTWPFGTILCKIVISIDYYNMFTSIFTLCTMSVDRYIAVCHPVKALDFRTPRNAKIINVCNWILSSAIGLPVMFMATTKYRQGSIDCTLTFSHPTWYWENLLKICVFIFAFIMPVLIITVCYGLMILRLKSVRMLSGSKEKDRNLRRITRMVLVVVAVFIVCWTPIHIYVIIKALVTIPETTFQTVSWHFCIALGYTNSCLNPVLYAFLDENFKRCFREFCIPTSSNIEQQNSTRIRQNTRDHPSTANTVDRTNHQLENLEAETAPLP
5.35
